test system: phosphate uptake by rabbit intestinal Brush Border Membrane Vesicles (BBMV); assay: 33PO4 uptake in rabbit intestinal BBMV (HTS), phosphate transporter inhibition in vitro; format: biochemical; conditions: Table 13, phosphate uptake, read-out: IC50
pIC50: −log10 of the molar value.
outcomeMeasure: pIC50

Form field: reported pIC50 of O=S(=O)(O)c1cc(/N=N/c2ccc(O)cc2)ccc1/C=C/c1ccc(/N=N/c2ccc(O)cc2)cc1S(=O)(=O)O [Compound 292]
> 4.30

Form field: reported pIC50 of O=S(=O)(O)c1cc(NS(=O)(=O)c2ccc(-c3ccccc3)cc2)ccc1/C=C/c1ccc(NS(=O)(=O)c2ccc(-c3ccccc3)cc2)cc1S(=O)(=O)O [Compound 293]
4.00 to 4.29

Form field: reported pIC50 of O=S(=O)(O)c1cc(NS(=O)(=O)c2cccc(C(F)(F)F)c2)ccc1/C=C/c1ccc(NS(=O)(=O)c2cccc(C(F)(F)F)c2)cc1S(=O)(=O)O [Compound 296]
3.30 to 4.00

Form field: reported pIC50 of O=C(Nc1ccc(/C=C/c2ccc(NC(=O)c3ccccc3)cc2S(=O)(=O)O)c(S(=O)(=O)O)c1)c1ccccc1 [Compound 300]
3.00 to 3.30

Form field: reported pIC50 of O=[N+]([O-])c1cccc(S(=O)(=O)Nc2ccc(/C=C/c3ccc(NS(=O)(=O)c4cccc([N+](=O)[O-])c4)cc3S(=O)(=O)O)c(S(=O)(=O)O)c2)c1 [Compound 297]
3.30 to 4.00

----------
test system: phosphate uptake by rabbit intestinal Brush Border Membrane Vesicles (BBMV); test: 33PO4 uptake in rabbit intestinal BBMV (HTS), phosphate transporter inhibition in vitro; type: biochemical; details: Table 6, 100 μM compound
Everything with % Inhib. at 100 μM lower than 60% is class 0; everything else, including exactly 60%, is class 1.

COc1ccc(C2=NOC(c3ccco3)C2)cc1 (centres unmarked)    class 0
Oc1ccc(-c2cc(-c3ccco3)on2)cc1    class 0
Fc1ccc(C2CC(c3ccc(Oc4ccccc4)cc3)=NO2)cc1 (centres unmarked)    class 0
Oc1ccc(C2=NOC(c3ccc(F)cc3)C2)cc1 (centres unmarked)    class 1

Given Cn1nc(-c2cc(Cl)cc(Cl)c2O)cc1-c1ccc(Br)cc1 , state whether its % Inhib. at 100 μM is at least 60%.
class 0

Given c1ccc(Oc2ccc(-c3cc(-c4ccco4)on3)cc2)cc1 , state whether its % Inhib. at 100 μM is at least 60%.
class 1

Given COc1ccc(-c2cc(-c3ccco3)on2)cc1 , state whether its % Inhib. at 100 μM is at least 60%.
class 1

Given c1ccc(Oc2ccc(C3=NOC(c4ccco4)C3)cc2)cc1 (centres unmarked) , state whether its % Inhib. at 100 μM is at least 60%.
class 1

----------
system: phosphate uptake by rabbit intestinal Brush Border Membrane Vesicles (BBMV); test: 33PO4 uptake in rabbit intestinal BBMV (HTS), phosphate transporter inhibition in vitro; type: biochemical; settings: Table 10, phosphate uptake, read-out: IC50
Below, each entry is listed with its recorded IC50.

O=C(Nc1ccc(Oc2ccc3ccccc3c2Br)c(Cl)c1)c1cc(Br)cc(Br)c1O [Compound 254]    101 to 500 µM
CCOP(=O)(OCC)c1cc(Br)ccc1NC(=O)c1ccc(F)cc1F [Compound 260]    101 to 500 µM
CCOP(=O)(OCC)c1cc(Br)ccc1NC(=O)c1ccc(Cl)c(Cl)c1 [Compound 267]    501 to 1000 µM

Proceeding to the next compound to report its IC50.
Form field: reported IC50 of CCOP(=O)(OCC)c1cc(Br)ccc1NC(=O)c1cc(C(F)(F)F)ccc1C(F)(F)F [Compound 264]
101 to 500 µM
